Assay: Cmax in mini-pig at 5 mg/kg, po
Type: ADME, organism-based, Sus scrofa domesticus
Set-up: dose 5 mg/kg, route oral
Details: in vivo
OBSERVED_PROPERTY: Cmax (ng/mL)
Give the quantity in ng/mL, number only.

Query: Answer with the recorded Cmax for the compound listed here: `CC#C[C@]1(O)CC[C@H]2[C@@H]3CCC4=CC(=O)CC[C@]4(C)[C@H]3[C@@H](c3ccc(N(C)C)cc3)C[C@@]21C`
Response: 249

###

Molecular target: Androgen receptor (Homo sapiens, UniProt P10275)
Sequence (P10275 whole entry): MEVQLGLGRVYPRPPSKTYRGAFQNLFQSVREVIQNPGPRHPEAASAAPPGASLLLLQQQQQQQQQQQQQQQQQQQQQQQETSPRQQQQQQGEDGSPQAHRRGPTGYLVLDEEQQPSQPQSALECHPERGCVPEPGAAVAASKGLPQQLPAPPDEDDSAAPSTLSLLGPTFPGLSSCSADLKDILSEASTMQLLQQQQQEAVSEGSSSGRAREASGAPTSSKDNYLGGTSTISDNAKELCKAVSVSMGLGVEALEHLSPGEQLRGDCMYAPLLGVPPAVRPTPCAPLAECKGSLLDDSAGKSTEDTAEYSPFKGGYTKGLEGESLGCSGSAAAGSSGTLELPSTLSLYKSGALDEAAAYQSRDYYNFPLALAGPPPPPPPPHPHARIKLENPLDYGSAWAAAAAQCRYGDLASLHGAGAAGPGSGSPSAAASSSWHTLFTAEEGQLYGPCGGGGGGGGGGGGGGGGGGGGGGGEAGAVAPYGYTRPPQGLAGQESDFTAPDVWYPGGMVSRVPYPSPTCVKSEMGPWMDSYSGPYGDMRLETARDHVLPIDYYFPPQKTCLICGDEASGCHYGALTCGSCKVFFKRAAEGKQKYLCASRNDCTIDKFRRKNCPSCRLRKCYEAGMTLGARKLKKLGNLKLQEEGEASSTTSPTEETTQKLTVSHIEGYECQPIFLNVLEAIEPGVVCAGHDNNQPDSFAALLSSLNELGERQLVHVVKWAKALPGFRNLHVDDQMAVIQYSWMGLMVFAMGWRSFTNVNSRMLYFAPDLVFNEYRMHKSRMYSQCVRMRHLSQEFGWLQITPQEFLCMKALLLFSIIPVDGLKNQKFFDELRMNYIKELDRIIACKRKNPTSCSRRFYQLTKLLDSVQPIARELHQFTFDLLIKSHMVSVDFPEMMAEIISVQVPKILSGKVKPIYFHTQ
Assay: Agonist activity at human androgen receptor in human LNCAP cells harboring firefly luciferase gene after 20 hrs by One-Glo luciferase reporter gene assay relative to mifepristone
Assay type: cell-based
OBSERVED_PROPERTY: Emax at 20 h (%)
Give the quantity in %, number only.

entry_smiles=CC#C[C@]1(O)CC[C@H]2[C@@H]3CCC4=CC(=O)CC[C@]4(C)[C@H]3[C@@H](c3ccc(-n4cccc4)cc3)C[C@@]21C observed_property="Emax at 20 h" readout_value=16.5
entry_smiles=CN(C)c1ccc([C@H]2C[C@@]3(C)[C@@H](CC[C@@]3(O)C#CC(F)(F)F)[C@@H]3CCC4=CC(=O)CC[C@]4(C)[C@H]32)cc1 observed_property="Emax at 20 h" readout_value=7.3
entry_smiles=CN(C)c1ccc([C@H]2C[C@@]3(C)[C@@H](CC[C@@]3(O)C#CC(C)(C)C)[C@@H]3CCC4=CC(=O)CC[C@]4(C)[C@H]32)cc1 observed_property="Emax at 20 h" readout_value=7.4

Query: Answer with the recorded Emax at 20 h for the molecule listed here: `CC#C[C@]1(O)CC[C@H]2[C@@H]3CCC4=CC(=O)CC[C@]4(C)[C@H]3[C@@H](OCc3ccc(Cl)cc3)C[C@@]21C`
Response: 47.8

Query: Answer with the recorded Emax at 20 h for the molecule listed here: `CC(C)(C)C#C[C@]1(O)CC[C@H]2[C@@H]3CCC4=CC(=O)CC[C@@H]4[C@H]3[C@@H](c3ccc(N4CCOCC4)cc3)C[C@@]21C`
Response: 5.1

Query: Answer with the recorded Emax at 20 h for the molecule listed here: `CCC#C[C@]1(O)CC[C@H]2[C@@H]3CCC4=CC(=O)CC[C@]4(C)[C@H]3[C@@H](c3ccc(N(C)C)cc3)C[C@@]21C`
Response: 13.2

Origin of the recorded values: ChEMBL document CHEMBL4406804
